# Tested System: chimeric CD1a pool B protein [human CD1a lipid binding domain, mouse CD1d Ig domain] (human; mouse, UniProt P06126 18-201; P11609 205-297, limits assumed)
# Sequence (P06126 other isoform, or with tags, fused parts or gaps mutant limits assumed): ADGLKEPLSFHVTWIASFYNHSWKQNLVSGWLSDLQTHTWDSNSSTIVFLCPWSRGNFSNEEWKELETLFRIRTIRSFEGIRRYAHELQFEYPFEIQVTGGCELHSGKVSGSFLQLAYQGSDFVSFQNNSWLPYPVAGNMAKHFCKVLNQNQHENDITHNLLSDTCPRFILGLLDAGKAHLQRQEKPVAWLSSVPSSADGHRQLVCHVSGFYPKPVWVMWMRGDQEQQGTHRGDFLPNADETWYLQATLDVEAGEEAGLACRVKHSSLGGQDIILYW
# Assay: ELISA, 1 µg/ml antibody
Metric Name: Optical Density (OD)
Just the number plus its unit, please.

Please fill in: Optical Density (OD) reported for 111 (VR12113) (antibody, V domains shown, also called OX111) VH: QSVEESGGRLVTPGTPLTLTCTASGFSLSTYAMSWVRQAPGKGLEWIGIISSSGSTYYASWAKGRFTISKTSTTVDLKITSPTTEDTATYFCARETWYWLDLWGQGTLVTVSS VL: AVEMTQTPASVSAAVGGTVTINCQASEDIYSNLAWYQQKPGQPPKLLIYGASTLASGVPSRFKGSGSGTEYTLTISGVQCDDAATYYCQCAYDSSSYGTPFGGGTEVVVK = 1.36 OD

Attribution: patent US20250289893A1
